B1: HHH_rd1_0493 (parent)
chain: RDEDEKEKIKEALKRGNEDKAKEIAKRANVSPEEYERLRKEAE

Variants of: B1
Experiment: folding stability dG (cDNA display proteolysis); higher = more stable
Details: PBS, room temperature
result type: folding stability dG (kcal/mol)
Could you give me the number in kcal/mol? Just the number is fine.

Q) Read off the recorded folding stability dG for RDEDEKEKIKEALKRGNEYKAKEIAKRANVSPEEYERLRKEAE [D19Y]
A) 2.5

Q) Read off the recorded folding stability dG for RDEDEKEKIKEALKRVNEDKAKEIAKRANVSPEEYERLRKEAE [G16V]
A) 0.445

Q) Read off the recorded folding stability dG for RDEDEKEKIKEALKRGNEDKAKEIAKRANVSPEEYERLGKEAE [R39G]
A) 1.16

Q) Read off the recorded folding stability dG for RDEDEKEKIKEALKRGNEDKAKEIAKRANKSPEEYERLRKEAE [V30K]
A) 0.917

Q) Read off the recorded folding stability dG for RDVDEKEKIKEALKRGNEDKAKEIAKRANVSPEEYERLRKEAE [E3V]
A) 2.76

Q) Read off the recorded folding stability dG for RDEDEKEKIKEALKRGNEDKAKEIAKAANVSPEEYERLRKEAE [R27A]
A) 3.04

Q) Read off the recorded folding stability dG for RDEDEKEKIKEALKRGNEDKAKEIAKRANVSPEEYERLTKEAE [R39T]
A) 1.89

Q) Read off the recorded folding stability dG for RDEDEKEKIKEALWRGNEDKAKEIAKRANVSPEEYERLRKEAE [K14W]
A) 1.9

Q) Read off the recorded folding stability dG for RDEDEKEKIKSALKRGNEDKAKEIAKRANVSPEEYERLRKEAE [E11S]
A) 2.58

Q) Read off the recorded folding stability dG for RDCDEKEKIKEALKRGNEDKAKEIAKRANVSPEEYERLRKEAE [E3C]
A) 2.57

Q) Read off the recorded folding stability dG for RDEDEKEKIKEALKRGNEDKAKEIAKRANQSPEEYERLRKEAE [V30Q]
A) 0.766

Q) Read off the recorded folding stability dG for RDEDEKEKIKEALKRGNEDKAKEIAKRANVYPEEYERLRKEAE [S31Y]
A) 1.3

Q) Read off the recorded folding stability dG for RDEDEKEKIKEALKCGNEDKAKEIAKRANVSPEEYERLRKEAE [R15C]
A) 2.31

Q) Read off the recorded folding stability dG for RDEDEKEKIKEALKRGNEDKAKEIAERANVSPEEYERLRKEAE [K26E]
A) 2.83

Q) Read off the recorded folding stability dG for RDEDEKTKIKEALKRGNEDKAKEIAKRANVSPEEYERLRKEAE [E7T]
A) 3

Q) Read off the recorded folding stability dG for RDEDEKEKIKEALKRGNVDKAKEIAKRANVSPEEYERLRKEAE [E18V]
A) 3.19

Q) Read off the recorded folding stability dG for RDEDEKEKIKEALKRGNEDKAKEIAKRADVSPEEYERLRKEAE [N29D]
A) 2.39

Q) Read off the recorded folding stability dG for RDEDEKEKIMEALKRGNEDKAKEIAKRANVSPEEYERLRKEAE [K10M]
A) 2.02

Q) Read off the recorded folding stability dG for RDMDEKEKIKEALKRGNEDKAKEIAKRANVSPEEYERLRKEAE [E3M]
A) 2.81

Q) Read off the recorded folding stability dG for RDEDEKMKIKEALKRGNEDKAKEIAKRANVSPEEYERLRKEAE [E7M]
A) 3.12

Q) Read off the recorded folding stability dG for RDEDEKEKIKEALKRGNEDKAKEIAKRSNVSPEEYERLRKEAE [A28S]
A) 2.51

Q) Read off the recorded folding stability dG for RDEDEKEKMKEALKRGNEDKAKEIAKRANVSPEEYERLRKEAE [I9M]
A) 1.48

Q) Read off the recorded folding stability dG for RDEDEKEKIKEALPRGNEDKAKEIAKRANVSPEEYERLRKEAE [K14P]
A) 0.417

Q) Read off the recorded folding stability dG for RDEDEKEKIKEALKRGNEDKAKEIAKRANVSPEEYERLRKEAD [E43D]
A) 2.56

Q) Read off the recorded folding stability dG for QDEDEKEKIKEALKRGNEDKAKEIAKRANVSPEEYERLRKEAE [R1Q]
A) 3.1

Q) Read off the recorded folding stability dG for RDESEKEKIKEALKRGNEDKAKEIAKRANVSPEEYERLRKEAE [D4S]
A) 3.03

Q) Read off the recorded folding stability dG for RDEDEKEKIKEALKRGNEDKAKEIAKRANVSPEGYERLRKEAE [E34G]
A) 1.06

Q) Read off the recorded folding stability dG for RDEDEKEKIKWALKRGNEDKAKEIAKRANVSPEEYERLRKEAE [E11W]
A) 1.91

Q) Read off the recorded folding stability dG for RDEDEKEKIKEALKRGNEDKAKEIAKRAKVSPEEYERLRKEAE [N29K]
A) 2.74

Q) Read off the recorded folding stability dG for RDEDEKEKIKEALKRGNEDKAKSIAKRANVSPEEYERLRKEAE [E23S]
A) 2.42

Q) Read off the recorded folding stability dG for RDEDEKEKIKEALKRGNEDKAKEIAKRAGVSPEEYERLRKEAE [N29G]
A) 3.3

Q) Read off the recorded folding stability dG for RKEDEKEKIKEALKRGNEDKAKEIAKRANVSPEEYERLRKEAE [D2K]
A) 2.82

Q) Read off the recorded folding stability dG for RDEDEKEKIKEALKRGNEDKAKEIAKRAIVSPEEYERLRKEAE [N29I]
A) 1.23

Q) Read off the recorded folding stability dG for RDEDEKEKIKEALKRGNEDKAKIIAKRANVSPEEYERLRKEAE [E23I]
A) 2.35

Q) Read off the recorded folding stability dG for RDEDEKEKIKEAEKRGNEDKAKEIAKRANVSPEEYERLRKEAE [L13E]
A) 0.376

Q) Read off the recorded folding stability dG for RDEDEKEKIKEALKRGNEDKAKEIAKRANVSPEEYERLRKEAF [E43F]
A) 3.37
